pIC50: −log10 of the molar value. Counter-ions that a name gives are not always drawn.
pIC50 values recorded for human GST-CLK1 (129-end) (Homo sapiens)

Check out these entries, answers already filled in.
>  <compound>
CCNc1cc(Nc2ccc(C(=O)N3CC[C@@H](N4CCOCC4)C3)c3c2OCC3)nc2[nH]cc(C(F)(F)F)c12 [Example 213]

>  <testedTarget>
human GST-CLK1 (129-end) (Homo sapiens)
Sequence (P49759 129-484 limits assumed): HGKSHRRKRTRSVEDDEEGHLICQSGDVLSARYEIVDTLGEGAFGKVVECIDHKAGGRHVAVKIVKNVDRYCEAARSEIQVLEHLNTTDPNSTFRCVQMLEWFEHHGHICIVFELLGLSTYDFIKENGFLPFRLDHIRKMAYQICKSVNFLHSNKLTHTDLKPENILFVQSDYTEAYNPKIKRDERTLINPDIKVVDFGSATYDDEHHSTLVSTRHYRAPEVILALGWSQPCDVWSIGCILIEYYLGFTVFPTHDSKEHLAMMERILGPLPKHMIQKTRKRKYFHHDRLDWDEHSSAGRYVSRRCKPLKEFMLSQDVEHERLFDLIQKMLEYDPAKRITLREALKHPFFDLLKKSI

>  <pIC50>
> 7.00

$$$$
>  <compound>
O=C(c1ccc(Nc2cc(NC3CCC3)c3c(C(F)(F)F)c[nH]c3n2)c2c1OCCO2)N1CCOCC1 [Example 175, trifluoroacetate]

>  <testedTarget>
human GST-CLK1 (129-end) (Homo sapiens)

>  <pIC50>
6.52 to 7.00

$$$$
>  <compound>
CCCNc1cc(Nc2ccc(C(=O)N3CCOCC3)c3c2OCCO3)nc2[nH]cc(C#N)c12 [Example 108]

>  <testedTarget>
human GST-CLK1 (129-end) (Homo sapiens)

>  <pIC50>
6.00 to 6.52

$$$$

Sample C=CCNc1cc(Nc2ccc(C(=O)N3CC[C@@H](N4CCOCC4)C3)c3c2OCC3)nc2[nH]cc(C(F)(F)F)c12 [Example 261] , system: human GST-CLK1 (129-end) (Homo sapiens). Its pIC50 is > 7.00

Sample CCNc1cc(Nc2ccc(C(=O)N3CCOCC3)c3c2OCO3)nc2[nH]cc(C#N)c12 [Example 33] , system: human GST-CLK1 (129-end) (Homo sapiens). Its pIC50 is 6.52 to 7.00

Sample CCOCCNc1cc(Nc2ccc(C(=O)N3CCOCC3)c3c2OCCO3)nc2[nH]cc(C(F)(F)F)c12 [Example 166] , system: human GST-CLK1 (129-end) (Homo sapiens). Its pIC50 is 6.00 to 6.52

Sample CCCNc1cc(Nc2ccc(S(=O)(=O)N3CCOCC3)cc2OC)nc2[nH]ccc12 [Example 12, trifluoroacetate] , system: human GST-CLK1 (129-end) (Homo sapiens). Its pIC50 is 6.00 to 6.52

Sample COCCNc1cc(Nc2ccc(S(=O)(=O)N3CCOCC3)cc2OC)nc2[nH]cc(C#N)c12 [Example 129] , system: human GST-CLK1 (129-end) (Homo sapiens). Its pIC50 is 6.00 to 6.52
